System: 786-0 renal
Test: NCI-60 one-dose screen, 48 h
Conditions: 10 µM unless noted
The panel holds about 83,000 compounds, 20% with a hit somewhere; the sample as a whole holds those more often. Activity calls are given as the source filed them. How the source made its calls: active means growth percent below 10; inactive means the rest.
The reply should name one outcome from active, inactive

Take a look at these entries with their results.
molecule	target-under-test	group-label
CCCCC(=O)OCC1OC(n2cnc3c(=S)nc[nH]c32)C(OC(=O)CCCC)C1OC(=O)CCCC (stereo unspecified)	786-0 renal	inactive
CN(C)S(=O)(=O)c1ccc(S(=O)(=O)Nc2cccc(Cl)c2N2CCCCC2)cc1	786-0 renal	inactive
COc1cccc(-c2nc(SCC(=O)Nc3ccc(C(=O)/C=C/c4ccc(OC)c(OC)c4)cc3)[nH]c(=O)c2C#N)c1	786-0 renal	inactive
CC(C)(C)c1cc(C(C)(C)C)cc(S(=O)(=O)Nc2cc3ccccc3cc2C(=O)NCCN)c1	786-0 renal	inactive
O=C1NC(=Nc2ccc(O)cc2)S/C1=C\c1cccc(Cl)c1	786-0 renal	inactive

Task: For CC(=O)c1nc2ccccc2n1CC(=O)c1cccc(Cl)c1 , what call appears in the results of this test?
Output: inactive

Task: Which outcome was assigned to CCNC(=O)Oc1ccc(/C(=C(\C)c2ccc(Cl)cc2)c2ccc(OCCN3CCCCC3)cc2)cc1 in this test?
Output: inactive

Task: Which result was noted for this molecule in the test: COc1ccc(NC(=O)c2ccc(/C=C/C(=O)c3ncc[nH]3)cc2)cc1
Output: inactive

Task: Look up the recorded call for CC(=O)Oc1ccc(Cl)cc1CN(C(C)=O)C1CCCCC1 in this test.
Output: inactive

Task: Please share the test call associated with Clc1ccc2nc3nc4ccc[nH]c4cc3c2c1 .
Output: inactive

Task: # lookup: test call for CCc1nc(N)nc(N)c1C#CC(C)c1ccc(-c2ccncc2)cc1Cl (stereo unspecified)
Output: inactive

Task: Identify the outcome logged in this assay for the molecule shown: COc1cc2nnc3c4cccnc4[nH]c3c2cc1OC
Output: active

Task: Query: recorded result category for Cc1ncc(C(=O)Nc2ccc(CN3CCN(C)CC3)c(C(F)(F)F)c2)cc1C#Cc1cnc2cccnn12 in this test
Output: active

Task: Just curious, what result did CC1=C/C(=C(\c2ccc(N(C)C)cc2)c2ccc([N+](C)(C)C)cc2)C=CC1=[N+](C)C get here?
Output: inactive

Task: Lab log entry: COc1ccc(C(=S)N2CCN(c3cccc(Cl)c3)CC2)cc1 — outcome as called in the assay?
Output: inactive

Task: Check the results log: what was the call for Cc1ccccc1COc1ccc(-c2onc(C)c2-c2ccc(Cl)cc2)cc1 ?
Output: inactive

* * *

Tested on: T-47D breast
Assay: NCI-60 one-dose screen, 48 h (100 = growth as untreated, 0 = no growth, -100 = all killed)
Settings: 10 µM unless noted
This is part of a sample that, as a whole, favours compounds with a hit. Of some 83,000 tested, about 20% had one in any assay. The source made the active and inactive calls. The calls were made as follows: active = growth percent below 10; inactive = the rest.
Recorded growth for the following compounds

compound	recorded-result
Cc1ccc(NC(=O)C2CCC(CN3CCN(C)CC3)CC2)cc1Nc1nccc(-c2cccnc2)n1 (stereo not given)	86.2% (inactive)
Cc1cc(Nc2ccc(C)c(Cl)c2)n2nc(C(F)(F)F)nc2n1	-0.705% (active)
CC(C)c1c(C(=O)c2ccccc2)c(-c2ccccc2)c(-c2ccc(F)cc2)n1CC[C@@H](O)C[C@@H](O)CC(=O)O	91.4% (inactive)
COc1ccc(C(=O)/C=C/c2cccnc2Nc2cc(OC)c(OC)c(OC)c2)cc1	44.1% (inactive)

Next, consider the following compound.
Task: Give recorded growth. Cc1ccc(NS(=O)(=O)c2ccc(-c3cnc(C4CC4)o3)cc2)cc1C
Output: 26.4% (inactive)

* * *

Tested on: NCI-H226 lung
Assay: NCI-60 one-dose screen, 48 h (100 = growth as untreated, 0 = no growth, -100 = all killed)
Details: 10 µM unless noted
About 83,000 compounds went through this panel and 20% of them were active in at least one assay; those are over-represented in the sample as a whole. Calls of active or inactive are those of the source. How the source made its calls: active means growth percent below 10; inactive means the rest.
measured-metric: growth

molecule	measured-metric	recorded-result
COc1cc(C=Nc2oc(-c3ccccc3)c(-c3ccccc3)c2C#N)cc(CN2CCCCC2)c1O	growth	90.5% (inactive)
O=C(Cc1ccc(/C=C/C(=O)c2ncc[nH]2)cc1)Nc1ccc(F)cc1	growth	61.3% (inactive)
Cc1cc(C)nc(SC2=C(Nc3ccc(O)cc3)C(=O)N(Cc3ccccc3)C2=O)n1	growth	89.7% [40 µM] (inactive)

Task: Item COc1cc(/C=C/C(=O)c2ccc(O)c(CN3CCN(c4cc5c(cc4F)c(=O)c(C(=O)O)cn5C4CC4)CC3)c2)cc(OC)c1OC : provide growth
Output: 76.9% (inactive)

* * *

Tested on: SK-MEL-28 melanoma
Assay: NCI-60 one-dose screen, 48 h (100 = growth as untreated, 0 = no growth, -100 = all killed)
Conditions: 10 µM unless noted
The panel holds about 83,000 compounds, 20% with a hit somewhere; the sample as a whole holds those more often.
Cut-off 50% on growth: below means yes (1), at or above means no (0).

Sample answers from the record:
input-smiles	group-label
CCCCn1cnc2c(Sc3c([N+](=O)[O-])ncn3C)nc(N)nc21	no (0)
c1ccc(-c2c(-c3ccccc3)[n+](Cc3ccc4ccccc4c3)c(-c3ccc(-c4nc5ccccc5s4)cc3)n2Cc2ccc3ccccc3c2)cc1	yes (1)
CCCSc1ccc2nc(NC(=O)OC)[nH]c2c1	no (0)

Task: Find out if reported growth for O=C(N=Nc1c(O)[nH]c2ccc(Br)cc12)c1cc(-c2ccccc2)on1 is less than 50%
Output: no (0)

Task: is_below(growth, 50%) for COc1cc2c(cc1-c1c(C)noc1C)ncc1nc(C3CCOCC3)n([C@@H](C)COC(F)F)c12 ?
Output: no (0)

* * *

Test system: M14 melanoma
Experiment: NCI-60 one-dose screen, 48 h
Conditions: 10 µM unless noted
Compounds without any hit were thinned out: in the full panel of roughly 83,000, 20% have a hit. Calls of active or inactive are those of the source. How the source made its calls: active means growth percent below 10; inactive means the rest.
Hi! Could you answer with just one of these? T for active, F for inactive

For orientation, consider the following solved cases.
compound	group-label
CON1C(=O)CC[C@]2(C)[C@H]3CC[C@@H]4C([C@@]5(C)CCC(=O)O5)CC[C@@]4(C)[C@]3(C)CC[C@H]2C1(C)C (stereo partly drawn)	F
CCOC(=O)c1sc2nc(-c3cccc(O)c3)nc(N3CCOCC3)c2c1C	F
CCOc1cc2ncc(C#N)c(Nc3ccc(OCc4cccc(F)c4)c(Cl)c3)c2cc1NC(=O)CC1CCSS1 (stereo not drawn)	T
COc1cccc(-c2nn(C(C)(C)C)cc2-c2ccnc(NCCCNS(=O)(=O)c3ccc(C)cc3)c2)c1	F
C=CC(=O)Nc1cccc(-c2nc(SC)nc(Nc3ccccc3OC)c2C#N)c1	F

Task: Per the records of this test, what outcome belongs to COc1cccc(-c2nc3sccn3c2-c2ccnc(NCCCNS(=O)(=O)c3cccc(Cl)c3)c2)c1 ?
Output: F

Task: Look up the recorded call for O=c1cc(CSc2nnc(-c3ccc(F)cc3)o2)c2ccc3ccccc3c2o1 in this test.
Output: F

Task: Would you mind telling me which call this test gave Cc1cc(N2CCOCC2)nc(N[C@@H]2CCC[C@H](Nc3ccnc4cc(Cl)ccc34)C2)n1 ?
Output: T

Task: Assay result, entry COc1ccc(-c2nc3ccc(-c4nc5ccc(N6CCN(c7ccncc7)CC6)cc5[nH]4)cc3[nH]2)cc1OC — outcome?
Output: F

Task: So what was the verdict on COc1ccc(C2Nc3c(c(C(C)(C)C)nn3-c3ccccc3)C(=O)CS2)cc1 (stereo not drawn) in this test?
Output: F

Task: How did this test come out for CN(C)[C@@H]1C(=O)C(C(=O)NCc2nc3[nH]cnc(=S)c3[nH]2)=C(O)[C@@]2(O)C(=O)C3=C(O)c4c(O)cccc4[C@@](C)(O)[C@H]3C[C@@H]12 ?
Output: T

Task: Hey, what did the test say about Cc1ccc(NS(=O)(=O)c2ccc(-c3cnc(C4CC4)o3)cc2)cc1C ?
Output: F

Task: # outcome recorded in this test, key = COc1cc(-c2nc3cc(Cl)c(Cl)cc3[nH]2)ccc1OCC(=O)N=Nc1c(O)[nH]c2ccccc12
Output: T

* * *

Test system: BT-549 breast
Assay: NCI-60 one-dose screen, 48 h (100 = growth as untreated, 0 = no growth, -100 = all killed)
Conditions: 10 µM unless noted
Method: Growth inhibition of the BT-549 human tumor cell line is measured as a screen for anti-cancer activity. Cells are grown in 96 well plates and exposed to the test compound for 48 hours. Compounds are tested at a single concentration, which is 10^-5 M for most compounds. The reported endpoint is percent growth (GI% or GIPRCNT), where numbers from 0 - 100% represent growth inhibition, and numbers from -100% - 0 represent cell death. For example, a value of 40 represents 60% growth inhibition. […]
About 83,000 compounds went through this panel and 20% of them were active in at least one assay; those are over-represented in the sample as a whole.
measured-metric: growth (%)
Express it in %; write the number only.

These solved cases illustrate the format of a correct answer.
input-smiles	endpoint-unit	growth
O=C1c2ccccc2C(=O)c2c1ccc1[nH]c(-c3cccs3)nc21	%	65.5
COc1cc2nc(N3CCCC3)nc(NCCc3ccccc3)c2cc1OC	%	82.6
CC(C)(CCCN=C(N)Nc1ccc(Cl)cc1)c1ccc(F)cc1	%	82.6
COc1ccc(-c2nc3ccc(-c4nc5ccc(N6CCN(c7ccccc7)CC6)cc5[nH]4)cc3[nH]2)cc1OC	%	52.9

Please examine the following record next.
Task: Specify growth for COc1ccc(-c2nc3ccc(-c4nc5ccc(N6CCN(C)CC6)cc5[nH]4)cc3[nH]2)cc1OC and stop.
Output: 63
